Test system: LOX IMVI
assay_method_text: NCI tumour cell line growth inhibition, 48 h
Activity calls are given as the source filed them. No stated cut-off is given here; in the data, active = GI50 up to about 1.1 µM and inactive = higher.
observation_type: GI50

Reference set (4 entries):
COCN1C(=O)[C@@H]2CCCN2C(=O)c2cc(Cl)ccc21 : > 100 µM (inactive)
CCOC(=O)c1c(N2CCOCC2)[nH]c(=O)c(C(c2ccc(OC)cc2)c2c(O)c(C(=O)OCC)c(N3CCOCC3)[nH]c2=O)c1O : > 100 µM (inactive)
CCSc1nc(N2CCOCC2)c2cn[nH]c2n1 : 32.4 µM (inactive)
NC1=NS(=O)(=O)Nc2nc(-c3ccc(Cl)cc3)[nH]c21 : > 100 µM (inactive)

Field: next compound
(Q) Give its GI50 value. Item: CN(C)C(=O)C(F)(F)C(c1ccc(C(F)(F)F)cc1)C1C(=O)N(C)C(=O)N(C)C1=O (stereo not given)
(A) > 100 µM (inactive)

----------
Test system: SK-MEL-2
assay_method_text: NCI tumour cell line growth inhibition, 48 h
Activity calls are given as the source filed them. Cut-off read from the data, not from the text of the source: active = GI50 up to about 1.1 µM and inactive = higher.
observation_type: GI50

CCC1OC(=O)C(C)C(OC2CC(C)(O)C(O)C(C)O2)C(C)C(O)C(C)(O)CC(C)C(=O)C(C)C(O)C1C (stereo not given) : > 300 µM (inactive)
O=C1C(NCCc2cc(Cl)c(O)c(Cl)c2)=CC(=O)c2[nH]cnc21 : 19.2 µM (inactive)

(Q) Item CN(C)C(=O)C(F)(F)C(c1ccc(C(F)(F)F)cc1)C1C(=O)N(C)C(=O)N(C)C1=O (stereo not given) with SK-MEL-2 - GI50?
(A) > 100 µM (inactive)

(Q) Item Clc1ccc(Cn2cc(/C=N/n3cnnc3)c3ccccc32)cc1 with SK-MEL-2 - GI50?
(A) 26.7 µM (inactive)

(Q) Item Cc1nc2c(o1)/C(=N\c1ccccc1)c1ccccc1C2=O with SK-MEL-2 - GI50?
(A) 4.86 µM (inactive)

(Q) Item COc1cccc(C(=O)Oc2ccc(OS(=O)(=O)c3ccc(C)cc3)cc2)c1C#N with SK-MEL-2 - GI50?
(A) 66.5 µM (inactive)

(Q) Item COc1ccc(C2c3c[nH]nc3CC3CCCCC32)cc1 (stereo not given) with SK-MEL-2 - GI50?
(A) 17.9 µM (inactive)

(Q) Item O=S(=O)(O)c1ccc(/N=N/c2ccc(/N=N/c3c(O)ccc4ccccc34)c(S(=O)(=O)O)c2)cc1 with SK-MEL-2 - GI50?
(A) > 100 µM (inactive)

(Q) Item CN(C)CCNC(=O)c1cccc(NC(=O)c2ccccc2)c1[N+](=O)[O-] with SK-MEL-2 - GI50?
(A) > 100 µM (inactive)

(Q) Item COC(=O)C1OC(O[C@H]2CC[C@]3(C)[C@H]4CC=C5[C@@H]6CC(C)(C)CC[C@]6(C(=O)OC)CC[C@@]5(C)[C@]4(C)CC[C@H]3C2(C)C)C(O)C(O)C1O (stereo not given in full) with SK-MEL-2 - GI50?
(A) 17.3 µM (inactive)

(Q) Item COc1cc(NS(C)(=O)=O)ccc1NCc1c[nH]c2ccc3ncccc3c12 with SK-MEL-2 - GI50?
(A) 19.5 µM (inactive)

(Q) Item COc1nc(N(C)C)nc2c1[n+](C)cn2C with SK-MEL-2 - GI50?
(A) 32.2 µM (inactive)

(Q) Item O=C(CC(NC(=O)C(F)(F)F)C(=O)O)OCc1ccccc1 (stereo not given) with SK-MEL-2 - GI50?
(A) > 100 µM (inactive)

(Q) Item CNc1c2c(c3nc4ccccc4c4c3c1N=C4)NCCC2=O with SK-MEL-2 - GI50?
(A) > 10 µM (inactive)

(Q) Item COc1ccc(OC)c(CNc2ccc(O)c(C(=O)NCCc3ccc(F)cc3)c2)c1 with SK-MEL-2 - GI50?
(A) 8.15 µM (inactive)

(Q) Item O=[N+]([O-])c1ccc(NN/N=N/c2ccc(-c3nc4ccccc4s3)cc2)c([N+](=O)[O-])c1 with SK-MEL-2 - GI50?
(A) 21 µM (inactive)

(Q) Item Cc1nc2ccccc2n1COC(Cn1ccnc1)c1ccc(Cl)cc1Cl (stereo not given) with SK-MEL-2 - GI50?
(A) 64 µM (inactive)

(Q) Item Nc1ccccc1C(=O)CC1OC(=O)c2ccccc21 (stereo not given) with SK-MEL-2 - GI50?
(A) 14 µM (inactive)

(Q) Item [O-][n+]1c2c([n+]([O-])c3ccccc31)CCCCCCCCCC2 with SK-MEL-2 - GI50?
(A) > 100 µM (inactive)

(Q) Item COc1ccc(COCC[C@H](C)OC2OC(CO[Si](C)(C)C(C)(C)C)C(O)C(O)C2O)cc1 (stereo not given in full) with SK-MEL-2 - GI50?
(A) > 100 µM (inactive)

----------
Tested on: SF-539
assay_method_text: NCI tumour cell line growth inhibition, 48 h
Active and inactive are the calls of the source. Rule as the data show it: active = GI50 up to about 1.1 µM and inactive = higher.
# output must be one of class 1 = active, class 0 = inactive

O=C(O)CN(c1ccccc1)S(=O)(=O)c1cccc([N+](=O)[O-])c1 : class 0
CCC1(CC)C(=O)NC(=O)NC1=S : class 0
COc1ccc(/C=C2\Oc3cc(OC(C)=O)ccc3C2=O)cc1 : class 0
O=C1c2c(O)cccc2C(C(=O)CCCCCC(=O)C2c3cccc(O)c3C(=O)c3c(O)cccc32)c2cccc(O)c21 : class 1
NS(=O)(=O)c1ccc(NC(=S)N/C=C2\C(=O)Nc3ccccc3C2=O)cc1 : class 0

Turning now to a further compound:
(Q) Called result for O=[N+]([O-])c1ccc(NN/N=N/c2ccc(-c3nc4ccccc4s3)cc2)c([N+](=O)[O-])c1
(A) class 0

----------
Tested on: UACC-62
assay_method_text: NCI tumour cell line growth inhibition, 48 h
Activity calls are given as the source filed them. Rule as the data show it: active = GI50 up to about 1.1 µM and inactive = higher.
observation_type: GI50

Reference set (3 entries):
CC(=C/C=C/C=C(C)\C=C\C=C(\C)C(=O)O)/C=C/C=C(/C)C(=O)O : > 100 µM (inactive)
CC1(C)S[C@H](CN)N[C@H]1C(=O)OC(c1ccccc1)c1ccccc1 : 22.9 µM (inactive)
Nn1c(Nc2ccc(S(N)(=O)=O)cc2)nnc(/C=C/c2c(O)ccc3ccccc23)c1=O : 18.7 µM (inactive)

(Q) Give its GI50 value. Item: CCN1CCc2sc3nc(S)n(C)c(=O)c3c2C1
(A) > 100 µM (inactive)

(Q) Give its GI50 value. Item: Oc1c(Cl)c(Cl)c(O)c(-c2cnc(-c3ncc(-c4c(O)c(Cl)c(Cl)c(O)c4Cl)s3)s2)c1Cl
(A) 19.7 µM (inactive)

(Q) Give its GI50 value. Item: Cc1c2c(cc3c1C(=O)C(O)=C([C@@H](C)CO)C3=O)C(C)(C)CCC2
(A) 28.2 µM (inactive)

----------
Test system: HOP-92
assay_method_text: NCI tumour cell line growth inhibition, 48 h
Active and inactive are the calls of the source. Rule as the data show it: active = GI50 up to about 1.1 µM and inactive = higher.
observation_type: GI50

CC(=O)C(CN(C)Cc1ccccc1)C(c1ccccc1)c1c(O)c2ccccc2oc1=O (stereo not given) : 31.9 µM (inactive)
COc1ccc(COCC[C@H](C)OC2OC(CO[Si](C)(C)C(C)(C)C)C(O)C(O)C2O)cc1 (stereo not given in full) : > 100 µM (inactive)
NC(=S)N/N=C/c1ccc(OC(=O)COc2ccccc2Cl)cn1 : 12.9 µM (inactive)
O=C(N/N=C/c1ccc(Cl)cc1)c1ccccc1Nc1ccccc1C(=O)N/N=C/c1ccc(Cl)cc1 : > 100 µM (inactive)
Cc1cn(C2OC(C)(CO)C(O)C2O)c(=O)[nH]c1=O (stereo not given) : > 100 µM (inactive)
c1ccc2c(c1)CCN2CCc1c[nH]c2ccccc12 : > 10 µM (inactive)
CC1=Nc2ccccc2NC(c2ccoc2)C1 (stereo not given) : > 100 µM (inactive)
Cc1c2c(c(C)n1-c1ccccc1)C(=O)N(CCCCN1CCN(c3ccccc3)CC1)C2=O : 8.17 µM (inactive)
CC1=CCC(O)C=CC(C)C(O)C(C)C=C(C)C(=O)c2c(O)c(C)cc3c2C(=O)C(N)=C(NC(=O)/C=C\C=C/C=CC(C)C(O)CC1=O)C3=O (stereo not given) : > 100 µM (inactive)

(Q) Give its GI50 value. Item: Cc1c2c(cc3c1C(=O)C(O)=C([C@@H](C)CO)C3=O)C(C)(C)CCC2
(A) 35 µM (inactive)

----------
Tested on: XF498
assay_method_text: NCI tumour cell line growth inhibition, 48 h
The source made the active and inactive calls. Cut-off read from the data, not from the text of the source: active = GI50 up to about 1.1 µM and inactive = higher.
Each item that follows carries a reported GI50.

O=P1(Oc2ccccc2)C(c2ccccc2)C(c2ccccc2)=NN1c1ccccc1 (centres undefined) : 43.2 µM (inactive)
CCC1C[N+]23CCc4c([nH]c5ccccc45)C2CC1CC3 (centres undefined) : 42.9 µM (inactive)
CCN(CC)[C@@H]1c2cc3c(cc2C(c2cc(OC)c(O)c(OC)c2)C2C(=O)CO[C@@H]21)OCO3 (some centres undefined) : > 100 µM (inactive)

Field: next compound
(Q) Give its GI50 value. Item: O=C1c2ccccc2C(=O)c2sc(Nc3cccc(Cl)c3)nc21
(A) 1.73 µM (inactive)

From: ChEMBL document CHEMBL1201862
